Reported Cells PE-A Mean values are given for each entry in this list.
- Test System: T1, human PD-L1 (hPD-L1) expressed on transfected 300.19 cells (human, UniProt Q9NZQ7 19-290)
- T1 construct: whole, on cells; also called B7H1
- T1 sequence (Q9NZQ7 19-290): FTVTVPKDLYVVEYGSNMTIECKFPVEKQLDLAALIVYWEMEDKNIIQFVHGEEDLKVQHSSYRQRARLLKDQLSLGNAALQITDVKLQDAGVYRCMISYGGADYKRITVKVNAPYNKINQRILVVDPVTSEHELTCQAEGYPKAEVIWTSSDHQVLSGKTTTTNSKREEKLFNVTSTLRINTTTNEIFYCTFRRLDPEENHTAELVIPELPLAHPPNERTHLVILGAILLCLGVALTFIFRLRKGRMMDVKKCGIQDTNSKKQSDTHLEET
- Test Summary: FACS, hPD-L1 300.19 cells, assay 1, Ab approx 10 ug/ml
Numeric answer only, unit MFI assumed.

Answered cases to consult:
{"Binder": "Ab-50 (antibody, V domains shown, also called huPD-L1 Ab # 50) VH: QVQLVQSGGEVKKPGASVKVSCKASGYTLSSHGITWVRQAPGQGLEWMGWISAHNGHASNAQKVEDRVTMTTDTSTNTAYMELRSLTADDTAVYYCARVHAALYYGMDVWGQGTLVTVSS VL: QSVLTQPPSVSVAPGQTARITCGGNNIGSKGVHWYQQKPGQAPVLVVYDDSDRPSGIPERFSGSNSGNTATLTISRVEAGDEADYYCQVWDSSSDHWVFGGGTKLTVL", "Cells PE-A Mean / MFI": 49400}
{"Binder": "Ab-31 (antibody, V domains shown, also called huPD-L1 Ab # 31) VH: QVQLVQSGAEVKKPGATVKVSCKVFGDTFRGLYIHWVRQAPGQGLEWMGGIIPIFGTANYAQKFQGRVTITTDESTSTAYMELSSLRSEDTAVYYCASGLRWGIWGWFDPWGQGTLVTVSS VL: EIVLTQSPATLSLSPGERATLSCRASQSIGNSLAWYQQKPGQAPRLLMYGASSRATGIPDRFSGSGAGTDFTLTISSLEPEDFATYYCQQHTIPTFSFGPGTKVEVK", "Cells PE-A Mean / MFI": 53800}
{"Binder": "Ab-42 (antibody, V domains shown, also called huPD-L1 Ab # 42; mAb42) VH: QVQLVQSGAEVKKPGSSVKVSCKASGGTFSSYAISWVRQAPGQGLEWMGGIIPIFGTANYAQKFQGRVTITADKSTSTAYMELSSLRSEDTAVYYCARGRQMFGAGIDFWGPGTLVTVSS VL: NFMLTQPHSVSESPGKTVTISCTRSSGSIDSNYVQWYQQRPGSAPTTVIYEDNQRPSGVPDRFSGSIDSSSNSASLTISGLKTEDEADYYCQSYDSNNRHVIFGGGTKLTVL", "Cells PE-A Mean / MFI": 53600}
{"Binder": "Ab-52 (antibody, V domains shown, also called huPD-L1 Ab # 52) VH: QVQLQESGGGVVQPGRSLRLSCSASGFTFSRHGMHWVRQAPGKGLEWVAVISHDGSVKYYADSMKGRFSISRDNSNNTLYLQMDSLRADDTAVYYCARGLSYQVSGWFDPWGQGTLVTVSS VL: NFMLTQPHSVSESPGKTVTISCTRSSGSIASNYVQWYQQRPGSAPTTVIYEDNQRPSGVPDRFSGSIDSSSNSASLTISGLKTEDEADYYCQSYDSTTPSVFGGGTKLTVL", "Cells PE-A Mean / MFI": 28400}
{"Binder": "Ab-14 (antibody, V domains shown, also called huPD-L1 Ab # 14) VH: QVQLVQSGAEVKKPGASVKVSCKASGYTFTSYGISWVRQAPGQGLEWMGWISAYNGNTNYAQKLQGRVTMTTDTSTSTAYMELRSLRSDDTAVYYCARALPSGTILVGGWFDPWGQGTLVTVSS VL: NFMLTQPHSVSESPGKTVTISCTRSSGNIASNYVQWYQQRPGSAPTTVIYEDNQRPSGVPDRFSGSIDSSSNSASLTISGLKTEDEADYYCQSYDSSNLWVFGGGTKLTVL", "Cells PE-A Mean / MFI": 41500}
{"Binder": "Ab-55 (antibody, V domains shown, also called huPD-L1 Ab # 55) VH: QVQLVQSGAEVKKPGASVKVSCKASGYTFTSYGISWVRQAPGQGLEWMGWTSPHNGLTAFAQILEGRVTMTTDTSTNTAYMELRNLTFDDTAVYFCAKVHPVFSYALDVWGQGTLVTVSS VL: NFMLTQPHSVSESPGKTVTISCTRSSGSIASNYVQWYQQRPGSSPTTVIYEDNQRPSGVPDRFSGSIDTSSNSASLTISGLKTKDEADYYCQSYDGITVIFGGGTKLTVL", "Cells PE-A Mean / MFI": 24400}

# evaluate next
Lab note: Ab-30 (antibody, V domains shown, also called huPD-L1 Ab # 30) VH: QVQLVQSGGSVVRPGESLRLSCVASGFIFDNYDMSWVRQVPGKGLEWVSRVNWNGGSTTYADAVKGRFTISRDNTKNSLYLQMNNLRAEDTAVYYCVREFVGAYDLWGQGTTVTVSS VL: QSALTQPASVSGSPGQSITISCTGTSSDVGGYNYVSWYQQHPGKAPKLMIYDVSNRPSGVSNRFSGSKSGNTASLTISGLQAEDEADYYCSSYTSSTLPFGGGTKLTVL gave Cells PE-A Mean of 47600

Hello, the source for this data is patent US20200385482A1, in case you need it.
